Each recorded value in this set is attributed to ChEMBL document CHEMBL1145112.

For each record, write down the corresponding pIC50.
- EXPERIMENTAL TARGET: Adenosine receptor A2b (Homo sapiens, UniProt P29275)
- Sequence (P29275 whole entry): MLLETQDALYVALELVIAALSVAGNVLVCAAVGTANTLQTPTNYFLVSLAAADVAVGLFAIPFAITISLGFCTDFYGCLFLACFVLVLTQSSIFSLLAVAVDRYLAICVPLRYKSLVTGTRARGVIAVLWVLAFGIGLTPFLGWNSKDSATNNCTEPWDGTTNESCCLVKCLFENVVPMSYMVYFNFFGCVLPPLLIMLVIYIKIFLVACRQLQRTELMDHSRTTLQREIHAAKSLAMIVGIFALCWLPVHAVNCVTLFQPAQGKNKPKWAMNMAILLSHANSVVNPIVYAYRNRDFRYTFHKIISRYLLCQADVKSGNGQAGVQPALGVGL
- METHOD NOTES: Inhibitory activity against NECA stimulated cAMP accumulation in CHO cells expressing human adenosine A2B receptor
Bear in mind: pIC50 is minus log10 of a mol/L concentration; give just that figure.

# get_value(readout='pIC50', item= CC(C)CCn1cc2c(nc(NC(=O)Cc3cccc4ccccc34)n3nc(-c4ccco4)nc23)n1 )
6.77

Any idea what pIC50 was measured for O=C(Cc1cccc2ccccc12)Nc1nc2nn(CCc3ccccc3)cc2c2nc(-c3ccco3)nn12 ?
6.74

Item CC(C)CCn1cc2c(nc(NC(=O)Cc3ccccc3)n3nc(-c4ccco4)nc23)n1 has what recorded pIC50?
6.72

Data request, read-out pIC50, for O=C(COc1ccccc1)Nc1nc2nn(CCc3ccccc3)cc2c2nc(-c3ccco3)nn12
6.89

May I ask what pIC50 has been recorded for O=C(Cc1ccccc1)Nc1nc2nn(CCc3ccccc3)cc2c2nc(-c3ccco3)nn12 ?
6.68

###

Please respond with reported IC50 for every item in the list.
- EXPERIMENTAL TARGET: Adenosine receptor A2b (Homo sapiens, UniProt P29275)
- METHOD NOTES: Inhibitory activity against NECA stimulated cAMP accumulation in CHO cells expressing human adenosine A2B receptor
- Type: functional, cell-based
Only the number, expressed in nM, is required.

State the recorded IC50 for this entry: O=C(COc1ccccc1)Nc1nc2nn(CCCc3ccccc3)cc2c2nc(-c3ccco3)nn12
140

Given CC(C)CCn1cc2c(nc(NC(=O)COc3ccccc3)n3nc(-c4ccco4)nc23)n1 , state its recorded IC50.
150

Endpoint output: IC50 of O=C(Cc1cccc2ccccc12)Nc1nc2nn(CCCc3ccccc3)cc2c2nc(-c3ccco3)nn12 . Value?
110

Endpoint output: IC50 of O=C(Cc1ccccc1)Nc1nc2nn(CCCc3ccccc3)cc2c2nc(-c3ccco3)nn12 . Value?
250

###

- EXPERIMENTAL TARGET: Adenosine receptors; A1 & A2b (Homo sapiens) (UniProt P30542+P29275)
- METHOD NOTES: Relative inhibitory activity against adenosine A1 and A2B receptors
- Assay type: protein assay
Please assign a class to every record based on measured Ratio, with ranges bottom end (below 2), midrange (2 to below 4), top end (4 or more)

Which Ratio category applies to O=C(COc1ccccc1)Nc1nc2nn(CCc3ccccc3)cc2c2nc(-c3ccco3)nn12 here?
bottom end

Category of Cn1cc2c(nc(NC(=O)Cc3ccccc3)n3nc(-c4ccco4)nc23)n1 :
top end

Lab note: which band did Cn1cc2c(nc(NC(=O)Nc3ccccc3)n3nc(-c4ccco4)nc23)n1 land in?
midrange

Hi, small favor: classify CC(C)CCn1cc2c(nc(NC(=O)Cc3cccc4ccccc34)n3nc(-c4ccco4)nc23)n1 by its Ratio when you get a moment.
top end

Which class does O=C(Cc1cccc2ccccc12)Nc1nc2nn(CCCc3ccccc3)cc2c2nc(-c3ccco3)nn12 fall in?
top end

Field: class (Ratio) — entry: O=C(Cc1cccc2ccccc12)Nc1nc2nn(CCc3ccccc3)cc2c2nc(-c3ccco3)nn12
midrange

Sort into band: O=C(Cc1ccccc1)Nc1nc2nn(CCc3ccccc3)cc2c2nc(-c3ccco3)nn12
midrange

GET /class?item= O=C(Cc1ccccc1)Nc1nc2nn(CCCc3ccccc3)cc2c2nc(-c3ccco3)nn12
bottom end

Input CC(C)CCn1cc2c(nc(NC(=O)Cc3ccccc3)n3nc(-c4ccco4)nc23)n1 ; output its category
top end

Consider CC(C)CCn1cc2c(nc(NC(=O)COc3ccccc3)n3nc(-c4ccco4)nc23)n1 . To which Ratio class does it belong?
midrange

Lab note: sort Nc1nc2nn(CCc3ccccc3)cc2c2nc(-c3ccco3)nn12 into the matching Ratio band.
bottom end
